Hello, the source for this data is PubChem BioAssay AID1963984, in case you need it.

Reported viability, T/C values follow for various molecules
Test system: 233499-124-R-J3-PDC spheroids with HUVEC/MSC, viability
Test: Anticancer human tumor 233499-124-R-J3-PDC patient-derived colon adenocarcinoma cell line growth inhibition [PI3K]
Conditions: second compound 0.1 µM; first compound 0.1 µM; hits give low values
# value in %; strip the unit string

Below, 2 molecules whose answers are already recorded.
>  <molecule>
Cn1ncnc1[C@H]1c2n[nH]c(=O)c3cc(F)cc(c23)N[C@@H]1c1ccc(F)cc1 + CC(Nc1ccc2c(c1)OCCn1cc(N3C(=O)OCC3C(F)F)nc1-2)C(N)=O

>  <viability, T/C [%]>
66.3

$$$$
>  <molecule>
C=CC(=O)N1CCN(c2nc(=O)n(-c3c(C)ccnc3C(C)C)c3nc(-c4c(O)cccc4F)c(F)cc23)C(C)C1 (stereo unspecified) + CC(Nc1ncnc2nc[nH]c12)c1cc2cccc(Cl)c2c(=O)n1-c1ccccc1

>  <viability, T/C [%]>
87.4

$$$$

Problem: State the recorded viability, T/C for this entry: Cn1nccc1Nc1nccc(-c2ccn(C(CO)c3ccc(Cl)c(F)c3)c(=O)c2)n1 (stereo unspecified) + COc1c(OCCCN2CCOCC2)ccc2c3n(c(=NC(=O)c4cnc(N)nc4)nc12)CCN3
Solution: 72

Problem: State the recorded viability, T/C for this entry: CCN1CCN(Cc2ccc(Nc3ncc(F)c(-c4cc(F)c5nc(C)n(C(C)C)c5c4)n3)nc2)CC1 + CC(Nc1ncnc2nc[nH]c12)c1cc2cccc(Cl)c2c(=O)n1-c1ccccc1
Solution: 73.8

Problem: State the recorded viability, T/C for this entry: Cn1nccc1Nc1nccc(-c2ccn(C(CO)c3ccc(Cl)c(F)c3)c(=O)c2)n1 (stereo unspecified) + CC(Nc1ncnc2nc[nH]c12)c1cc2cccc(Cl)c2c(=O)n1-c1ccccc1
Solution: 95.6

Problem: State the recorded viability, T/C for this entry: Cn1ncc(Cl)c1-c1cc(C(=O)NC(CN)Cc2cccc(F)c2)sc1Cl (stereo unspecified) + CC(Nc1ncnc2nc[nH]c12)c1cc2cccc(Cl)c2c(=O)n1-c1ccccc1
Solution: 108

###

Tested on: 233499-124-R-J3-PDC spheroids with HUVEC/MSC, viability
Assay: Anticancer human tumor 233499-124-R-J3-PDC cell line growth inhibition [PI3K];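 further: spheroids exposed to agents for seven days before readout; percent viability relative to DMSO vehicle control taken as 100%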
Details: second compound 1 µM; first compound 1 µM; hits give low values
experimental_readout: viability, T/C (%)
# value in %; strip the unit string

>  <molecule>
CCCS(=O)(=O)Nc1ccc(F)c(C(=O)c2c[nH]c3ncc(-c4ccc(Cl)cc4)cc23)c1F + Cc1nc(NC(=O)N2CCCC2C(N)=O)sc1-c1ccnc(C(C)(C)C(F)(F)F)c1

>  <assay_result>
67

$$$$

Let us move to another entry and its viability, T/C.
Problem: Missing value: viability, T/C, 233499-124-R-J3-PDC spheroids with HUVEC/MSC, viability, entry CC1(C)CCC(CN2CCN(c3ccc(C(=O)NS(=O)(=O)c4ccc(NCC5CCOCC5)c([N+](=O)[O-])c4)c(Oc4cnc5[nH]ccc5c4)c3)CC2)=C(c2ccc(Cl)cc2)C1 + CC(Nc1ccc2c(c1)OCCn1cc(N3C(=O)OCC3C(F)F)nc1-2)C(N)=O . Fill in?
Solution: 58.2

###

Test system: 233499-124-R-J3-PDC spheroids with HUVEC/MSC, viability
Assay: Anticancer human tumor 233499-124-R-J3-PDC cell line growth inhibition [PI3K];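 further: spheroids exposed to agents for seven days before readout; percent viability relative to DMSO vehicle control taken as 100%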
Details: second compound 1 µM; first compound 1 µM; hits give low values
Entry class follows viability, T/C: low class (below 60%), middle class (60% to below 90%), high class (90% or more)

>  <molecule>
C=CC(=O)N1CCN(c2nc(=O)n(-c3c(C)ccnc3C(C)C)c3nc(-c4c(O)cccc4F)c(F)cc23)C(C)C1 (stereo not drawn) + Cc1nc(NC(=O)N2CCCC2C(N)=O)sc1-c1ccnc(C(C)(C)C(F)(F)F)c1

>  <qualitative_label>
middle class

$$$$
>  <molecule>
CC(C)NCC(C(=O)N1CCN(c2ncnc3c2C(C)CC3O)CC1)c1ccc(Cl)cc1 (stereo not drawn) + CC(Nc1ncnc2nc[nH]c12)c1cc2cccc(Cl)c2c(=O)n1-c1ccccc1

>  <qualitative_label>
high class

$$$$
>  <molecule>
C[C@@H](NC(=O)c1ncnc(N)c1Cl)c1ncc(C(=O)Nc2cc(C(F)(F)F)c(Cl)cn2)s1 + CC(Nc1ncnc2nc[nH]c12)c1cc2cccc(Cl)c2c(=O)n1-c1ccccc1

>  <qualitative_label>
high class

$$$$
>  <molecule>
CC(Cn1ccc(-c2ccc(C#N)c(Cl)c2)n1)NC(=O)c1cc(C(C)O)[nH]n1 (stereo not drawn) + CC(Nc1ccc2c(c1)OCCn1cc(N3C(=O)OCC3C(F)F)nc1-2)C(N)=O

>  <qualitative_label>
middle class

$$$$

Next:
Problem: Tag the class for C[C@@H](NC(=O)c1ncnc(N)c1Cl)c1ncc(C(=O)Nc2cc(C(F)(F)F)c(Cl)cn2)s1 + COc1c(OCCCN2CCOCC2)ccc2c3n(c(=NC(=O)c4cnc(N)nc4)nc12)CCN3
Solution: low class

###

Test system: 233499-124-R-J3-PDC spheroids with HUVEC/MSC, viability
Assay: Anticancer human tumor 233499-124-R-J3-PDC cell line growth inhibition [PI3K];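 further: spheroids exposed to agents for seven days before readout; percent viability relative to DMSO vehicle control taken as 100%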
Settings: second compound 0.316 µM; first compound 0.1 µM; hits give low values
Flag rule - viability, T/C less than 90% flags true; the remaining entries get false.

Solved entries:
>  <molecule>
CC(C)NCC(C(=O)N1CCN(c2ncnc3c2C(C)CC3O)CC1)c1ccc(Cl)cc1 (stereo not given) + CC(Nc1ncnc2nc[nH]c12)c1cc2cccc(Cl)c2c(=O)n1-c1ccccc1

>  <qualitative_label>
false

$$$$
>  <molecule>
CCCS(=O)(=O)Nc1ccc(F)c(C(=O)c2c[nH]c3ncc(-c4ccc(Cl)cc4)cc23)c1F + Cc1nc(NC(=O)N2CCCC2C(N)=O)sc1-c1ccnc(C(C)(C)C(F)(F)F)c1

>  <qualitative_label>
true

$$$$
>  <molecule>
CC(=O)c1c(C)c2cnc(Nc3ccc(N4CCNCC4)cn3)nc2n(C2CCCC2)c1=O + CC(Nc1ccc2c(c1)OCCn1cc(N3C(=O)OCC3C(F)F)nc1-2)C(N)=O

>  <qualitative_label>
true

$$$$

Problem: Given the entry C#Cc1c(F)ccc2cc(O)cc(-c3ncc4c(N5CC6CCC(C5)N6)nc(OCC56CCCN5CC(F)C6)nc4c3F)c12 (stereo not given) + CC(Nc1ccc2c(c1)OCCn1cc(N3C(=O)OCC3C(F)F)nc1-2)C(N)=O , would its reported viability, T/C be below 90%?
Solution: true

###

Reported viability, T/C values follow for various compounds
System: 233499-124-R-J3-PDC spheroids with HUVEC/MSC, viability
Assay: Anticancer human tumor 233499-124-R-J3-PDC cell line growth inhibition [PI3K];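 further: spheroids exposed to agents for seven days before readout; percent viability relative to DMSO vehicle control taken as 100%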
Conditions: second compound 0.1 µM; first compound 0.000316 µM; hits give low values
# value in %; strip the unit string

Below, 10 compounds whose answers are already recorded.
>  <compound>
CC(=O)c1c(C)c2cnc(Nc3ccc(N4CCNCC4)cn3)nc2n(C2CCCC2)c1=O + COc1c(OCCCN2CCOCC2)ccc2c3n(c(=NC(=O)c4cnc(N)nc4)nc12)CCN3

>  <assay_result>
56.3

$$$$
>  <compound>
CC(C)n1nc(-c2ccc3oc(N)nc3c2)c2c(N)ncnc21 + Cc1nc(NC(=O)N2CCCC2C(N)=O)sc1-c1ccnc(C(C)(C)C(F)(F)F)c1

>  <assay_result>
99.4

$$$$
>  <compound>
Cn1ncnc1[C@H]1c2n[nH]c(=O)c3cc(F)cc(c23)N[C@@H]1c1ccc(F)cc1 + CC(Nc1ccc2c(c1)OCCn1cc(N3C(=O)OCC3C(F)F)nc1-2)C(N)=O

>  <assay_result>
97.5

$$$$
>  <compound>
Cn1ncnc1[C@H]1c2n[nH]c(=O)c3cc(F)cc(c23)N[C@@H]1c1ccc(F)cc1 + CC(Nc1ncnc2nc[nH]c12)c1cc2cccc(Cl)c2c(=O)n1-c1ccccc1

>  <assay_result>
99.7

$$$$
>  <compound>
CC(=O)c1c(C)c2cnc(Nc3ccc(N4CCNCC4)cn3)nc2n(C2CCCC2)c1=O + Cc1nc(NC(=O)N2CCCC2C(N)=O)sc1-c1ccnc(C(C)(C)C(F)(F)F)c1

>  <assay_result>
90.2

$$$$
>  <compound>
Cn1ncnc1[C@H]1c2n[nH]c(=O)c3cc(F)cc(c23)N[C@@H]1c1ccc(F)cc1 + COc1c(OCCCN2CCOCC2)ccc2c3n(c(=NC(=O)c4cnc(N)nc4)nc12)CCN3

>  <assay_result>
81.1

$$$$
>  <compound>
Cn1ncnc1[C@H]1c2n[nH]c(=O)c3cc(F)cc(c23)N[C@@H]1c1ccc(F)cc1 + Cc1nc(NC(=O)N2CCCC2C(N)=O)sc1-c1ccnc(C(C)(C)C(F)(F)F)c1

>  <assay_result>
106

$$$$
>  <compound>
CC(=O)c1c(C)c2cnc(Nc3ccc(N4CCNCC4)cn3)nc2n(C2CCCC2)c1=O + CC(Nc1ncnc2nc[nH]c12)c1cc2cccc(Cl)c2c(=O)n1-c1ccccc1

>  <assay_result>
92.7

$$$$
>  <compound>
CC(C)n1nc(-c2ccc3oc(N)nc3c2)c2c(N)ncnc21 + CC(Nc1ccc2c(c1)OCCn1cc(N3C(=O)OCC3C(F)F)nc1-2)C(N)=O

>  <assay_result>
84

$$$$
>  <compound>
CC(C)n1nc(-c2ccc3oc(N)nc3c2)c2c(N)ncnc21 + CC(Nc1ncnc2nc[nH]c12)c1cc2cccc(Cl)c2c(=O)n1-c1ccccc1

>  <assay_result>
96.3

$$$$

Problem: Missing value: viability, T/C, 233499-124-R-J3-PDC spheroids with HUVEC/MSC, viability, entry CC(C)n1nc(-c2ccc3oc(N)nc3c2)c2c(N)ncnc21 + COc1c(OCCCN2CCOCC2)ccc2c3n(c(=NC(=O)c4cnc(N)nc4)nc12)CCN3 . Fill in?
Solution: 77.5

Problem: Missing value: viability, T/C, 233499-124-R-J3-PDC spheroids with HUVEC/MSC, viability, entry CC(=O)c1c(C)c2cnc(Nc3ccc(N4CCNCC4)cn3)nc2n(C2CCCC2)c1=O + CC(Nc1ccc2c(c1)OCCn1cc(N3C(=O)OCC3C(F)F)nc1-2)C(N)=O . Fill in?
Solution: 82.6
